Molecular target: TBK1 (Homo sapiens)
Construct: purchased Promega V3991
Sequence (Q9UHD2 whole entry): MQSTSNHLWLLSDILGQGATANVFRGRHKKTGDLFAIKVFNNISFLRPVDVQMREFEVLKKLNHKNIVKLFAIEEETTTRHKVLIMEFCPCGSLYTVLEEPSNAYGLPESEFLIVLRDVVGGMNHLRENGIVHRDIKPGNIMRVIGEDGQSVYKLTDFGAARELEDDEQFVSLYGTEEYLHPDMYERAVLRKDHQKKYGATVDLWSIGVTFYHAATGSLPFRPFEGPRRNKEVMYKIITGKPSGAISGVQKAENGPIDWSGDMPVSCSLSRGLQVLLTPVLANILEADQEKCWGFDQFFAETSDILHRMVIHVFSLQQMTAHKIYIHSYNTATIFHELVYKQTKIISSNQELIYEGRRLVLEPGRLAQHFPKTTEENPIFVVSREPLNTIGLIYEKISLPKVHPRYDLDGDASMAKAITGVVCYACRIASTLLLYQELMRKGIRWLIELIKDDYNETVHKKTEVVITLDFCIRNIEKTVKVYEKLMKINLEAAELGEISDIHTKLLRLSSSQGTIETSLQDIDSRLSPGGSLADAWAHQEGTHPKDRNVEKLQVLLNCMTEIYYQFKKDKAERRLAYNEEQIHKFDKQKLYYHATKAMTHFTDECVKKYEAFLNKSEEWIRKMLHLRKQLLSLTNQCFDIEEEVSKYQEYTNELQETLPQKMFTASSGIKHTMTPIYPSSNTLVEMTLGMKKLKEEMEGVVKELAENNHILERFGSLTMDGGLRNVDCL
Assay: TBK1 inhibition, ADP-Glo Kinase Assay
Format: biochemical
Details: luminometer
Procedure: Inhibition activities on TNIK, IKKε and TBK1 were evaluated using the compounds of Examples 1 to 254. The inhibition activities on TNIK, IKKε and TBK1 were measured by a luminometer, TNIK/IKKε/TBK1 Kinase Enzyme System (Promega, Ca# V4158; Invitrogen, PR8031B, Promega, Ca# V3991) and ADP-Glo Kinase Assay using ADP-Glo™ Kinase Analysis Kit (Promega, Ca# V9101) and a kinase reaction buffer [40 mM Tris(pH 7.5), 20 mM MgCl2, 0.1 mg/mL BSA] in accordance with the manufacturer's protocol.
PROPERTY NAME: IC50 (µM)

Consider the worked cases shown below.
| COMPOUND | MEASURED ON | UNIT STRING | IC50 |
| --- | --- | --- | --- |
| CN(C)CCCNc1ccc(C(=O)Nc2n[nH]c3ccc(C(=O)NCc4cccs4)cc23)cc1 | TBK1 (Homo sapiens) | µM | 0.0086 |
| CN1CCN(c2ccc(C(=O)Nc3n[nH]c4ccc(C(=O)NCc5ccncc5)cc34)cc2)CC1 | TBK1 (Homo sapiens) | µM | 0.0063 |
| CN1CCN(c2ccc(C(=O)Nc3n[nH]c4ccc(C(=O)NCc5ccon5)cc34)cc2)CC1 | TBK1 (Homo sapiens) | µM | 0.033 |
| O=C(Nc1n[nH]c2ccc(C(=O)NC3(c4ccccc4)CC3)cc12)c1ccc(N2CCOCC2)cc1 | TBK1 (Homo sapiens) | µM | 0.003 |

(a) CN1CCN(c2ccc(C(=O)Nc3n[nH]c4ccc(C(=O)NC(C)(C)c5cccs5)cc34)cc2)CC1
(b) CCC(NC(=O)c1ccc2[nH]nc(NC(=O)c3ccc(N4C[C@@H](C)N[C@@H](C)C4)cc3)c2c1)c1cccs1 (stereo partly shown) [Example 99, 2,2,2-trifluoroacetate]
(c) Cc1noc(CNC(=O)c2ccc3[nH]nc(NC(=O)c4ccc(N5CCOCC5)cc4)c3c2)n1 [Example 100, 2,2,2-trifluoroacetate]
Arrange these compounds by their IC50, starting with the largest number. # answer = labels listed in requested order
c, a, b

---

Target: IKKε (Homo sapiens)
Construct: purchased Invitrogen PR8031B
Sequence (Q14164 whole entry): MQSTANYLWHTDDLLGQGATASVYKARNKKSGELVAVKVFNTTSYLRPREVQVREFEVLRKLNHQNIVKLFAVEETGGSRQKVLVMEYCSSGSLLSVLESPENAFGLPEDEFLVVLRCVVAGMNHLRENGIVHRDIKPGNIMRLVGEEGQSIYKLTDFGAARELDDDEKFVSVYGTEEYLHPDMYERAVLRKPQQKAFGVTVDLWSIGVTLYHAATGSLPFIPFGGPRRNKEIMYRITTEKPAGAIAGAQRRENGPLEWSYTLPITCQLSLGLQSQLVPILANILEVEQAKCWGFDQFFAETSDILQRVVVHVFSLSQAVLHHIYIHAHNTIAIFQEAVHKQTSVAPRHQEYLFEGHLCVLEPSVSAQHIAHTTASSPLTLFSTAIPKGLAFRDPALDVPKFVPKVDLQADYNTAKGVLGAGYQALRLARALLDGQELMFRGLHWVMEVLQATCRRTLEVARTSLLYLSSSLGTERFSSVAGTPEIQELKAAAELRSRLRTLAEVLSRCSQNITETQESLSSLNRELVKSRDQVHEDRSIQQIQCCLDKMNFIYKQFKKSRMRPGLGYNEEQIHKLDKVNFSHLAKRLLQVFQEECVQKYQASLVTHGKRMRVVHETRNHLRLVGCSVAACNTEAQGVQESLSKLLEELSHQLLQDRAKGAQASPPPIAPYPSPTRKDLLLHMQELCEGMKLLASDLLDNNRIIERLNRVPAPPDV
Test: IKKε inhibition, ADP-Glo Kinase Assay
Assay type: biochemical
Settings: luminometer
PROPERTY NAME: IC50 (µM)

Consider the worked cases shown below.
| COMPOUND | MEASURED ON | UNIT STRING | IC50 |
| --- | --- | --- | --- |
| CC(NC(=O)c1ccc2[nH]nc(NC(=O)c3ccc(N4CCN(C)CC4)cc3)c2c1)c1nccs1 (stereo not shown) [Example 82] | IKKε (Homo sapiens) | µM | 0.074 |
| CN1CCN(c2ccc(C(=O)Nc3n[nH]c4ccc(C(=O)NCc5cccs5)cc34)cc2)CC1 [Example 149] | IKKε (Homo sapiens) | µM | 0.032 |

(A) O=C(NCc1cccs1)c1ccc2[nH]nc(NC(=O)c3ccc(N4CCNCC4)cc3)c2c1 [Example 171]
(B) CN1CCN(c2ccc(C(=O)Nc3n[nH]c4ccc(C(=O)NCc5ccc(Cl)s5)cc34)cc2)CC1 [Example 146]
Choose between A and B : whose measured IC50 value is numerically larger? Reply with the label of the item you choose.
B

Data origin, for the record: patent US10294207B2
